The reported numbers originate from PubChem BioAssay (NCI).

- Test system: NCI-H460 lung
- assay_remarks: NCI tumour cell line growth inhibition, 48 h
measured_endpoint: log10 of TGI (log10 of the value in µM)
Each number you see is log10 of TGI, and the unit inside the log is µM.

Report log10 of TGI for ClCCN(CCCl)Cc1ccc(Nc2ccnc3cc(Cl)ccc23)cc1 tested on NCI-H460 lung. 1.03

Report log10 of TGI for COc1ccc(-c2nc(-c3nc4ccc(F)cc4[nH]3)cc3c2[nH]c2ccccc23)cc1 tested on NCI-H460 lung. 0.76

Report log10 of TGI for O=C(C=P(c1ccccc1)(c1ccccc1)c1ccccc1)C12CC3CC(CC(C3)C1)C2 tested on NCI-H460 lung. 1.50

Report log10 of TGI for O=C1Nc2ccc(F)c3c(OCCO)cc(-c4ccc[nH]4)c1c23 tested on NCI-H460 lung. 0.71

Report log10 of TGI for Cc1cc(-c2ccc(C(=O)C(Cl)(Cl)Cl)[nH]2)on1 tested on NCI-H460 lung. 1.34

Report log10 of TGI for Nc1ccccc1C#C/C=C\C#Cc1ccc(F)cc1F tested on NCI-H460 lung. 1.46

Report log10 of TGI for O=C1N[C@H]2c3c(Cl)sc(Cl)c3C(=O)[C@H]2O1 tested on NCI-H460 lung. 1.57

Report log10 of TGI for COc1ccc(CN2C(=O)CCC/C=C\[C@H]2CI)cc1 tested on NCI-H460 lung. 1.41

Report log10 of TGI for O=C(NNc1nc2cc(F)ccc2n2c(CN3CCOCC3)ccc12)c1ccccc1 tested on NCI-H460 lung. 0.12

Report log10 of TGI for Brc1c[n+](Cc2ccc3ccccc3c2)cn1Cc1ccc2ccccc2c1 tested on NCI-H460 lung. 0.55

----------
- System: SW-620 colon
- assay_remarks: NCI tumour cell line growth inhibition, 48 h
measured_endpoint: GI50

Requested field: GI50. Item: CC(=O)[CH-]C(=O)c1ccccc1.CC(=O)[CH-]C(=O)c1ccccc1.[Nd+3].[OH-].[OH3+] > 100 µM

Requested field: GI50. Item: Cc1cc(N(CCCl)CCCl)ccc1C=Nc1cccnc1 61.2 µM

Requested field: GI50. Item: COc1ccc(C(CC(=O)c2ccccc2)C(C(=O)c2ccccc2)C(c2ccc(OC)cc2)C2C(=O)NC(=O)NC2=O)cc1 (stereo not given) 26.3 µM

Requested field: GI50. Item: Cn1ncc2c(Nc3ccc(Br)cc3)nc(Nc3ccc(Br)cc3)nc21 2.93 µM

Requested field: GI50. Item: OCC(O)CC[CH2][Sn]([c]1ccccc1)([c]1ccccc1)[c]1ccccc1 (stereo not given) 13.2 µM

----------
- Test system: HOP-92 NSCLC
- assay_remarks: NCI tumour cell line growth inhibition, 48 h
measured_endpoint: TGI

See these solved cases before continuing.
molecule | study_target | measured_endpoint | recorded_value
OCC(O)COc1ccc(Br)cc1 (stereo not drawn) | HOP-92 NSCLC | TGI | > 100 µM
Cc1nc2sc(C(=O)Nc3cccc4ccccc34)c(N)c2cc1C(C)O (stereo not drawn) | HOP-92 NSCLC | TGI | > 47 µM
COc1ccc(-c2cc3cccc(OC)c3c(=O)o2)cc1OC | HOP-92 NSCLC | TGI | > 100 µM
COc1nc(OC)c2c(=O)oc(-c3ccccc3)cc2n1 | HOP-92 NSCLC | TGI | > 100 µM
O=C1Nc2ccc(F)c3c(OCCO)cc(-c4ccc[nH]4)c1c23 | HOP-92 NSCLC | TGI | 5.4 µM

Requested field: TGI. Item: Cc1oc2ccccc2c(=O)c1Cn1nnc2ccccc21 87.4 µM

Requested field: TGI. Item: COC(=O)c1cnc2nc(N3CCOCC3)[nH]n2c1=O > 100 µM

Requested field: TGI. Item: CS(=O)(=O)C1S(=O)(=O)OCCOS1(=O)=O > 100 µM

Requested field: TGI. Item: CCOC(=O)c1ccc(NC2Oc3cc4c(cc3C(c3cc(OC)c(OC)c(OC)c3)C2C)OCO4)cc1 (stereo not drawn) 32.2 µM

Requested field: TGI. Item: COC(=O)Cc1c([C@@H]2Nc3ccccc3[C@H]2CC(=O)OC)[nH]c2ccccc12 > 100 µM

Requested field: TGI. Item: O=c1cc2n(c(=O)[nH]1)C1OC(C(O)C1O)[C@@H]2CCO (stereo partly drawn) > 100 µM

Requested field: TGI. Item: CN(C)CCC1(C2=CCCC2)CC/C(=C\c2ccc3c(c2)OCO3)C1=O (stereo not drawn) 24.4 µM

Requested field: TGI. Item: COc1ccc(-c2nc3ncccn3c2-c2ccc(S(C)=O)cc2)cc1 (stereo not drawn) > 100 µM
